molecular target: recombinant Mcl-1 (residues 172-327) (Homo sapiens (Human), UniProt Q07820); test: Fluorescence polarization anisotropy competition assay (FITC-Bak or FITC-Bim BH3 peptide) with Mcl-1; type: binding; conditions: Table 2; Ki bins given in nM; FITC-Bak or FITC-Bim peptide competition; Ki converted from IC50; read-out: Ki for Inhibition of Mcl-1
Sequence (Q07820 172-327): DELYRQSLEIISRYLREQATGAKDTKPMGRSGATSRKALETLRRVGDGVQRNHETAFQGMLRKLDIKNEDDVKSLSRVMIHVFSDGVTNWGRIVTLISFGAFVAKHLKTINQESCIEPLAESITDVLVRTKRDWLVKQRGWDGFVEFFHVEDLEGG
result.type: Ki

Need Ki of Cc1cc(OCCCc2c3n(c4c(-c5c(C)nn(C)c5C)c(Cl)ccc24)[C@H](C)CN(Cc2ccc(C(=O)O)cn2)C3=O)cc(C)c1Cl [I-153] , thanks.
< 50 nM

Need Ki of Cc1cc(OCCCc2c(C(=O)N(C)c3cccc(C(=O)O)c3)n(C)c3c(-c4c(C)nn(C)c4C)c(Cl)ccc23)cc(C)c1Cl [I-189] , thanks.
< 50 nM

Need Ki of Cc1cc(OCCCc2c3n(c4c(-c5c(C)nn(C)c5C)c(Cl)ccc24)C[C@H](C)N(Cc2ccc(C(=O)O)cn2)C3=O)cc(C)c1Cl [I-137] , thanks.
< 50 nM

Need Ki of Cc1cc(OCCCc2c3n(c4c(-c5c(C)nn(C)c5C)c(Cl)ccc24)C[C@@H](C)NC3=O)cc(C)c1Cl [I-109] , thanks.
< 50 nM

Need Ki of Cc1cc(OCCCc2c3n(c4c(-c5c(C)nn(C)c5C)cccc24)CCCN(Cc2cc(Br)cc(C(=O)O)c2)C3=O)cc(C)c1Cl [I-296] , thanks.
51 to 100 nM

Need Ki of Cc1cc(OCCCc2c3n(c4c(-c5c(C)nn(C)c5C)c(Cl)ccc24)CCCN(c2cc(CO)cc(C(=O)O)c2)C3=O)cc(C)c1Cl [I-224] , thanks.
< 50 nM

Need Ki of Cc1cc(OCCCc2c3n(c4c(-c5c(C)nn(C)c5C)c(Cl)ccc24)CCCN(Cc2cc(C(=O)O)cc(-c4ccc(OCc5ccccc5C(F)(F)F)cc4)c2)C3=O)cc(C)c1Cl [I-308] , thanks.
51 to 100 nM

Need Ki of Cc1cc(OCCCc2c(C(=O)N[C@H]3CC[C@@H](C(=O)O)C3)[nH]c3c(-c4c(C)nn(C)c4C)c(Cl)ccc23)cc(C)c1Cl [I-330] , thanks.
< 50 nM

Need Ki of Cc1cc(OCCCc2c(C(=O)NCCC(=O)NS(=O)(=O)c3ccc([N+](=O)[O-])cc3)[nH]c3c(-c4c(C)n[nH]c4C)cccc23)cc(C)c1Cl [I-24] , thanks.
101 to 299 nM

Need Ki of Cc1cc(OCCCc2c(C(=O)NCCS(=O)(=O)NC(=O)CC34CC5CC(CC(C5)C3)C4)[nH]c3ccccc23)cc(C)c1Cl [I-54] , thanks.
501 to 999 nM

Need Ki of Cc1cc(OCCCc2c3n(c4c(-c5c(C)nn(C)c5C)c(Cl)ccc24)CCCN(Cc2cc(C(=O)O)c(C)o2)C3=O)cc(C)c1Cl [I-347] , thanks.
< 50 nM

Need Ki of Cc1cc(OCCCc2c(C(=O)Nc3cncc(C(=O)O)c3)[nH]c3c(-c4c(C)nn(C)c4C)cccc23)cc(C)c1Cl [I-186] , thanks.
< 50 nM

Need Ki of Cc1cc(OCCCc2c3n(c4c(-c5c(C)nn(C)c5C)c(Cl)ccc24)CCN(Cc2ccc(C(=O)O)cn2)C3=O)cc(C)c1Cl [I-142] , thanks.
< 50 nM
